Biological target: EHMT1 (Homo sapiens, UniProt Q9H9B1)
Sequence (Q9H9B1 whole entry, species assumed): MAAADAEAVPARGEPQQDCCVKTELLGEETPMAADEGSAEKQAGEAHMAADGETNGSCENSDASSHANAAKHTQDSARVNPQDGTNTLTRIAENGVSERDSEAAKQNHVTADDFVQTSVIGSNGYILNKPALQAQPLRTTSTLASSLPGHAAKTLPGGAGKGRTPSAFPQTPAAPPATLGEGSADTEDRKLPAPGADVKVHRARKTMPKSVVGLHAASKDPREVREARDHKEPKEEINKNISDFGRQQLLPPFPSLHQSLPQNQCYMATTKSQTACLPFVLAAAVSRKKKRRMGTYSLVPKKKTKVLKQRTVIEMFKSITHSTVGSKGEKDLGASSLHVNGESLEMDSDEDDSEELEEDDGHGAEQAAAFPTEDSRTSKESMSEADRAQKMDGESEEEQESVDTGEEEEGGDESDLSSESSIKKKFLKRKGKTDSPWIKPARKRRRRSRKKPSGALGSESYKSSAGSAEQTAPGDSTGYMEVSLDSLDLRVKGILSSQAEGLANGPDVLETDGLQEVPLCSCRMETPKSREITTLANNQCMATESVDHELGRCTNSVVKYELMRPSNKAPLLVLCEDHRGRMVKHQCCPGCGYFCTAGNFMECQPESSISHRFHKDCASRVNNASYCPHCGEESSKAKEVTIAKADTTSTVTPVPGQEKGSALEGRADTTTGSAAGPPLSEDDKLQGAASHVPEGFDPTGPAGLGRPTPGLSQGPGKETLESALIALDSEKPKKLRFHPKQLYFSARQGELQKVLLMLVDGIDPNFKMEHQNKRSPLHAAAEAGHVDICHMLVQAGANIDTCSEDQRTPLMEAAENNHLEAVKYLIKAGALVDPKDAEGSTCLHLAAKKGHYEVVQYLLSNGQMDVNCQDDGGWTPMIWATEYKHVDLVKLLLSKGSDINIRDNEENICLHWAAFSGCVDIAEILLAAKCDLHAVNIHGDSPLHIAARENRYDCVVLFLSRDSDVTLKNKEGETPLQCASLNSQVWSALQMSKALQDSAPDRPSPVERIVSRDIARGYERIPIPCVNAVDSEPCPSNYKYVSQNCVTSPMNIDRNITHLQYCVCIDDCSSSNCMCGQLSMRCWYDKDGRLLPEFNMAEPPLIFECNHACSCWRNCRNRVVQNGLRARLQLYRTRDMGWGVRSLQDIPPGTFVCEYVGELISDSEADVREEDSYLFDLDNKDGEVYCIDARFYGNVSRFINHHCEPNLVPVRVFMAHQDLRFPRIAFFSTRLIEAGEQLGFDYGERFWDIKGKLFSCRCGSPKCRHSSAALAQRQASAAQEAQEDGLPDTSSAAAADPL
Assay: EHMT1 enzyme assay on peptide substrate (EHMT1 PEP)
Type: biochemical
Settings: Table II; read-out: EHMT1 PEP (IC50 μM)
assay-endpoint: IC50

Item: COc1ccc(Nc2nccc(NCC3CCNCC3)n2)cc1CCNCC1CCCC1 | IC50: 0.1 to 1 µM

The compound identified as COc1ccc(Nc2nccc(NCC3CCCC3)n2)cc1OCCCN1CCCC1 registered its IC50 at 0.1 to 1 µM

get_value(item= CCCCNc1nccc(NCC2CCC(NC(C)=O)CC2)n1 (stereo not drawn) , readout=IC50) returns > 10 µM

Per the record, COc1ccc(Nc2nccc(N3CCC(O)CC3)n2)cc1OCCCN1CCCC1 has IC50 of > 10 µM

For reference, reported IC50 for CNc1nc(Nc2ccc(OC)c(OCCCN3CCCC3)c2)ncc1F stands at 1 to 10 µM

Field IC50 (entry COc1ccc(Nc2nccc(NCC3CCN(C(C)=O)CC3)n2)cc1OCC1CCCN1C (stereo not drawn) ) reads 0.1 to 1 µM

Value of IC50 reported for the compound COc1ccc(Nc2nccc(NCc3cccnc3)n2)cc1OCCCN1CCCC1 is < 0.1 µM

Noted for COc1ccc(Nc2nccc(NCCC3CCOCC3)n2)cc1OCCCN1CCCC1 : its IC50 reads 0.1 to 1 µM

According to the records, this compound CNc1cc(Nc2ccc(OC)c(OCCCN3CCCC3)c2)ccn1 displays IC50 of 0.1 to 1 µM

* * *

Target: human EHMT2 913-1193 (Homo sapiens, UniProt Q96KQ7)
Construct: recombinant purified human EHMT2 913-1193, Viva; purchased Viva
Test: EHMT2 enzyme assay on histone peptide substrate (EHMT2 PEP)
Assay type: biochemical
Details: Table VI; read-out: EHMT2 PEP IC50
Would you kindly list IC50 for each of these molecules?

Lookup result for CNc1cc(C)nc(Nc2ccc(OC)c(CNCCN(C)C)c2)n1 ; measured IC50: < 100 nM

The value of IC50 measured for the molecule COc1cc2c(C3CCN(C(C)C)CC3)cc(C)nc2nc1OCCCN1CCCC1 turned out to be 100 to 1000 nM

The molecule listed as CCN1CC(COc2cc(Nc3nc(C)cc4[nH]ccc34)ncc2OC)C1 has a reported IC50 of 100 to 1000 nM

Lab note: measured IC50 of CNc1ccnc(Nc2ccc(OC)c(OCC[C@H]3CCCN3)c2)n1 was 1000 to 10000 nM

IC50 measured on COc1cc(N(C)C2CCNCC2)ncc1OCC1CCN(C)C1 (stereo not drawn) [Compound 634] = 100 to 1000 nM

Summary for this molecule, CNc1cc(C)nc(Nc2ccc(OC)c(OC[C@H]3CCN(C(C)(C)C)C3)c2)n1 : IC50 is > 10000 nM

So, COc1ccc(Nc2cc(C)n(C)n2)cc1OCCCN1CCCC1 ? Its IC50 was > 10000 nM

The molecule listed as CCN1CC[C@@H](COc2cc3nc(C)nc(C4CCN(C(C)C)CC4)c3cc2OC)C1 shows IC50 equal to 1000 to 10000 nM

Input CCN1CC(N(C)Cc2cc(Nc3nc(C)cc(NC)n3)ccc2OC)C1 . Output IC50: > 10000 nM

Field IC50 (entry COc1cc2c(C3CCOCC3)cc(C)nc2cc1OCCCN1CCCC1 ) reads 100 to 1000 nM

Lab note: measured IC50 of COc1cc(Nc2ccc3[nH]ncc3c2)ncc1OCCCN1CCCC1 was > 10000 nM

Briefly, IC50 measured for COc1cc2c(C3CCN([C@@H]4CCOC4)CC3)cc(C)nc2cc1OCCCN1CCCC1 : < 100 nM

Item: CNc1cc2nccn2c(Nc2cc(OCCCN3CCCC3)c(OC)cn2)n1 | IC50: 1000 to 10000 nM

The molecule listed as CNC[C@H](COc1cc(Nc2nccc(NC)n2)ccc1OC)OC shows IC50 equal to > 10000 nM

response.value for CNc1cc(C2CCN(CCC(F)(F)F)CC2)c2cc(OC)c(OCCCN3CCCC3)cc2n1 (field: IC50) = < 100 nM

In plain terms, COc1cc2c(C3CCN(C)CC3)nc(C)nc2cc1OCCCN1CCCC1 has a documented IC50 of 100 to 1000 nM

According to the records, this molecule CNc1cc(C)nc(Nc2ccc(OC)c(CN[C@@H]3CCNC3)c2)c1 displays IC50 of 1000 to 10000 nM

Noted for CNCCNCc1cc(Nc2nc(C)cc(NC)n2)ccc1OC : its IC50 reads 100 to 1000 nM

* * *

Kindly supply the reported IC50 values for the records listed here.
Biological target: EHMT1 (Homo sapiens, UniProt Q9H9B1)
Assay: EHMT1 enzyme assay on peptide substrate (EHMT1 PEP)
Assay type: biochemical
Conditions: Table III; read-out: EHMT1 PEP (IC50 μM)

Per the record, CNc1cc(C)nc(Nc2ccc(OC)c(OCC3CCN(C)CC3)c2)n1 [Compound 435] has IC50 of 1 to 10 µM

Memo: CNCc1cnc(Nc2ccc(OC)c(OCCCN3CCCC3)c2)nc1 [Compound 339] , reported IC50: > 10 µM

The compound identified as CNc1cc(Nc2cc(OCCCN3CCCC3)c(OC)cn2)cc(C)n1 [Compound 308] registered its IC50 at 0.1 to 1 µM

The recorded IC50 for entry CNc1ccnc(Nc2cccc3oc(CCN(C)C)nc23)n1 [Compound 295] equals > 10 µM

For this compound ( CCNC(=O)c1cc(Nc2nccc(NC)n2)ccc1Cl [Compound 396] ), measured IC50 is 1 to 10 µM

Consider CNc1ccnc(Nc2ccc(C3CC3)c(OCCCN3CCCC3)c2)n1 [Compound 314] . Its measured IC50 is 0.1 to 1 µM

IC50 measured on CNc1ccnc(Nc2ccc(OC)c(OCCCN3CCC(S(C)(=O)=O)C3)c2)n1 (stereo not drawn) [Compound 282] = > 10 µM

IC50 reading for CNc1cc(C)nc(Nc2cnc(OC)c(OCCCN3CCCC3)c2)n1 [Compound 332] : < 0.1 µM

Form field IC50, entry COc1ccc(Nc2nccc(NCC3CCOCC3)n2)cc1OC1CCC2(CC1)CN(C)C2 [Compound 260] : > 10 µM

* * *

I'd appreciate it if you could supply IC50 values for the items below.
Target: EHMT2 (Homo sapiens, UniProt Q96KQ7)
Construct: host or cells: MDA-MB-231
Sequence (Q96KQ7 1-1210): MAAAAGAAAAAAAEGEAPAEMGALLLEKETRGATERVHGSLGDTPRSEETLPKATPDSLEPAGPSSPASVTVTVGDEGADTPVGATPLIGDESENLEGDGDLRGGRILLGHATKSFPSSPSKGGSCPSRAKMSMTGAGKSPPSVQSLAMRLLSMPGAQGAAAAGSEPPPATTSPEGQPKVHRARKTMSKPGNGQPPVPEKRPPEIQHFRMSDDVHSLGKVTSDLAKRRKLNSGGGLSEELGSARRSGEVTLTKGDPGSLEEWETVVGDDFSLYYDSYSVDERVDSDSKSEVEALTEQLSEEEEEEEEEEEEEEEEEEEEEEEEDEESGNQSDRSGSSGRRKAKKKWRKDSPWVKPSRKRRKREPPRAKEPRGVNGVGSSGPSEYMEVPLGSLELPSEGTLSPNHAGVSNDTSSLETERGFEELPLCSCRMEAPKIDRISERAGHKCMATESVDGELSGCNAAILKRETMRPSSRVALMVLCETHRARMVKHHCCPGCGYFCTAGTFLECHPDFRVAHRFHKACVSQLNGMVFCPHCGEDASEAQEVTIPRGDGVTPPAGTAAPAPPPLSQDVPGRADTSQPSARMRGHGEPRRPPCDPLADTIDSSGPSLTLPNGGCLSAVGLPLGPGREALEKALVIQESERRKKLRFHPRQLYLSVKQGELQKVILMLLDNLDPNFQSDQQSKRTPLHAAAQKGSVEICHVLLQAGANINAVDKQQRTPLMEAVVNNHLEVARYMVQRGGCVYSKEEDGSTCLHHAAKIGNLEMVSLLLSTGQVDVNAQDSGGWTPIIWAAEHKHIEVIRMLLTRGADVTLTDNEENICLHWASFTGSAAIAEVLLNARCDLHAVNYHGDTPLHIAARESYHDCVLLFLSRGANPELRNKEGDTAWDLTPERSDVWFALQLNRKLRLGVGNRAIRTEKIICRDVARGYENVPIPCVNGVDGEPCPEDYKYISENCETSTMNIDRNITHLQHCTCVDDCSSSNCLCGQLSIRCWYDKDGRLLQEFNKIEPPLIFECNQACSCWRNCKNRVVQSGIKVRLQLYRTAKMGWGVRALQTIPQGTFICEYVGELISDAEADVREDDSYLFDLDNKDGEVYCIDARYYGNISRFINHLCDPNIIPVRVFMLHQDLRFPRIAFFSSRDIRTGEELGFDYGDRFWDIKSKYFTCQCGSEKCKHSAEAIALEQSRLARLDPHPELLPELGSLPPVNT
Experiment: MDA-MB-231 H3K9me2 in-cell Western assay (EHMT2 ICW)
Type: cell-based
Conditions: Table III; MDA-MB-231 H3K9me2 in-cell Western; read-out: EHMT2 ICW (IC50 μM)

Please fill in: IC50 reported for CNc1cc(C)nc(Nc2ccc(OC)c(O[C@H]3C[C@H](N(C)C)C3)c2)n1 (single isomer, unassigned) = > 10 µM

For record CNc1ccnc(Nc2ccc(OC)c(OC[C@H](O)CN3CCCC3)c2)n1 (single isomer, unassigned) [Compound 376] the listed IC50 is 1 to 10 µM

For this compound ( CNc1cc(C)nc(Nc2ccc(C3CC3)c(OCCCN3CCCC3)c2)n1 ), measured IC50 is 1 to 10 µM

The recorded IC50 for CNc1ccnc(Nc2ccc(OC)c(OCC3CCN(C)C3)c2)n1 (single isomer, unassigned) [Compound 416] is 0.1 to 1 µM

Recorded result, CNc1ccnc(Nc2cccc(COCCN3CCCC3)n2)c1 , IC50: > 10 µM

CNc1ncc(C(F)(F)F)c(Nc2ccc(OC)c(OCCCN3CCCC3)c2)n1 has a reported IC50 of > 10 µM

Just so you know, measured IC50 for CNc1ccnc(Nc2ccc(OC)c(OCC3CCCN3C)c2)n1 (centres unmarked) came out at 0.1 to 1 µM

For CNc1ccnc(Nc2ccc(OC)c(OCC3CCN(CC4CC4)C3)c2)n1 (centres unmarked) the compound record lists IC50 as 1 to 10 µM
